# assay-system: GSK-3α/β
# test-description: GSK-3 kinase assay (GS-1 peptide, 15 μM ATP)
# Type: biochemical, porcine
# reported-conditions: 15 μM ATP, Table 1; read-out: IC50 GSK-3
pIC50: −log10 of the molar value.
Use 5 as the dividing line for pIC50, with the line itself on the fulfilled side and lower values as not fulfilled.

>  <compound>
c1csc(-c2cc3nccnc3[nH]2)c1 [2 (RP6), 6-(2-Thienyl)[5H]pyrrolo[2,3-b]pyrazine]

>  <assay-system>
GSK-3α/β

>  <label-value>
fulfilled

$$$$
>  <compound>
Brc1ccc(-c2cc3nccnc3[nH]2)cc1 [21 (RP77)]

>  <assay-system>
GSK-3α/β

>  <label-value>
fulfilled

$$$$
>  <compound>
COc1ccc(-c2[nH]c3nccnc3c2CCCCl)cc1 [35 (RP126)]

>  <assay-system>
GSK-3α/β

>  <label-value>
fulfilled

$$$$
>  <compound>
Clc1ccc(C2(c3cc4nccnc4[nH]3)CC2)cc1 [9 (RP124)]

>  <assay-system>
GSK-3α/β

>  <label-value>
fulfilled

$$$$
>  <compound>
c1ccc2c(-c3cc4nccnc4[nH]3)cccc2c1 [6 (RP17), 6-(1-Naphtyl) [5H]pyrrolo[2,3-b]pyrazine]

>  <assay-system>
GSK-3α/β

>  <label-value>
not fulfilled

$$$$
>  <compound>
Cc1cnc2cc(-c3ccccc3)[nH]c2n1 [8 (RP18)]

>  <assay-system>
GSK-3α/β

>  <label-value>
not fulfilled

$$$$
>  <compound>
COc1cccc(-c2cc3nccnc3[nH]2)c1 [12 (RP10)]

>  <assay-system>
GSK-3α/β

>  <label-value>
fulfilled

$$$$
>  <compound>
Cc1c(C2(c3ccc(Cl)cc3)CC2)[nH]c2nccnc12 [49 (RP130)]

>  <assay-system>
GSK-3α/β

>  <label-value>
not fulfilled

$$$$

---

>  <molecule>
c1ccc(Cc2c(-c3ccccc3)[nH]c3nccnc23)cc1 [44 (RP92)]

>  <melting point [°C]>
209.8

$$$$
>  <molecule>
c1csc(-c2cc3nccnc3[nH]2)c1 [2 (RP6), 6-(2-Thienyl)[5H]pyrrolo[2,3-b]pyrazine]

>  <melting point [°C]>
260.3

$$$$
>  <molecule>
CCCc1c(-c2ccc(OC)cc2)[nH]c2nccnc12 [32 (RP127)]

>  <melting point [°C]>
188.5

$$$$
>  <molecule>
COc1ccccc1-c1cc2nccnc2[nH]1 [10 (RP9)]

>  <melting point [°C]>
156.9

$$$$
>  <molecule>
c1ccc(-c2cc3nccnc3[nH]2)cc1 [5 (RP7), 6-Phenyl[5H]pyrrolo[2,3-b]pyrazine]

>  <melting point [°C]>
216

$$$$
>  <molecule>
C=CCc1c(-c2ccc(OC)cc2)[nH]c2nccnc12 [34 (RP110)]

>  <melting point [°C]>
193.8

$$$$
>  <molecule>
c1ccc2c(-c3cc4nccnc4[nH]3)cccc2c1 [6 (RP17), 6-(1-Naphtyl) [5H]pyrrolo[2,3-b]pyrazine]

>  <melting point [°C]>
216.4

$$$$
>  <molecule>
COc1ccc(-c2[nH]c3nccnc3c2C(C)C)cc1 [36 (RP102)]

>  <melting point [°C]>
204.8

$$$$
>  <molecule>
CCCCCCCc1c(-c2ccc(OC)cc2)[nH]c2nccnc12 [41 (RP111)]

>  <melting point [°C]>
132.5

$$$$
>  <molecule>
COc1cc(-c2cc3nccnc3[nH]2)cc(OC)c1OC [17 (RP16)]

>  <melting point [°C]>
231.7

$$$$
>  <molecule>
Clc1ccc(C2(c3cc4nccnc4[nH]3)CC2)cc1 [9 (RP124)]

>  <melting point [°C]>
189.7

$$$$
>  <molecule>
c1coc(-c2cc3nccnc3[nH]2)c1 [1 (RP19), 6-(2-Furyl)[5H]pyrrolo[2,3-b]pyrazine]

>  <melting point [°C]>
232.6

$$$$
>  <molecule>
COc1ccc(-c2[nH]c3nccnc3c2C)cc1OC [29 (RP123)]

>  <melting point [°C]>
230.2

$$$$
>  <molecule>
Clc1ccc(-c2[nH]c3nccnc3c2Cc2ccccc2)cc1 [45 (RP91)]

>  <melting point [°C]>
266.3

$$$$
